Exercise: for every item that follows, state its recorded mass density.
PARTICULARS: 298.15 K; 101.33 kPa; Liquid; Vibrating tube method
One number for each entry, in kg/m3.

CCCOC(C)=O [propyl ethanoate]
882.21
CCCC(C)=O
802.46
CCNC=O [N-ethylformamide]
947.48

**Query** Give a short answer stating reported mass density for C1CCOCC1 [tetrahydropyran] .
**Result** 878.95

* * *

PARTICULARS: 303.15 K; 101.33 kPa; Liquid; Vibrating tube method
RECORDED_ENDPOINT: mass density (kg/m3)
One number for each entry, in kg/m3.

These recorded examples may help you get a feel for the data.
CCCC(C)=O
797.53
CCNC=O [N-ethylformamide]
943.29
CCCOC(C)=O [propyl ethanoate]
876.54

Okay, next one:
**Query** Read the entry C1CCOCC1 [tetrahydropyran] and write its reported mass density.
**Result** 873.79

* * *

Assign mass density to each entry below.
PARTICULARS: 293.15 K; 101.33 kPa; Liquid; Vibrating tube method
± gives the expanded uncertainty stated by the source.
Write the figure, then the unit, nothing else.

A selection of reference data follows.
CCCC(C)=O [pentan-2-one]
807.47 ± 0.18 kg/m3
C1CCOCC1 [tetrahydropyran]
884.08 ± 0.16 kg/m3
CCCOC(C)=O [propyl ethanoate]
887.97 ± 0.18 kg/m3

**Query** Fill in reported mass density for this entry: CCNC=O [N-ethylformamide]
**Result** 951.59 ± 0.24 kg/m3
